Assay: qHTS assay to test for compound auto fluorescence at 590 nm (red) in HEK293 cells (AID 720679); note: % is set by controls: 0 for no effect and ±100 for the full control effect
Conditions: red autofluorescence 540/590 nm; series mostly up to 91.3 µM
Text: National Center for Advancing Translational Sciences [NCATS] NIH Chemical Genomics Center [NCGC] U.S. Environmental Protection Agency [EPA] National Institutes of Environmental Health Sciences [NIEHS] National Toxicology Program [NTP] U.S. Food and Drug Administration [FDA] Compound auto fluorescence often interferes with screening of the compound library against various biological targets and signaling pathways. Some of these compounds may have fluorophoric properties. […]
Activity calls are given as the source filed them. Calls come from the whole dose curve; as a rule, active = well fitted curve in the direction sought with a large enough effect in the repeat runs; inconclusive = weak or mixed curves; inactive = flat fitted curve, though single readings scatter.
measure: fluorescence, % of fluorescent control

Solved entries (count: 8):
CCC1(C)CC(=O)NC1=O (stereo not given)	inactive
O=C(N/N=C/c1ccc([N+](=O)[O-])o1)c1ccc(O)cc1	0.101% [at 18.6 µM] (inactive)
O=C(c1ccc(O)cc1)c1ccc(Cl)cc1	inactive
N#C/C(=C1\SCC(c2ccccc2Cl)S1)n1ccnc1 (stereo not given)	inactive
CCn1cc(C(=O)O)c(=O)c2cc(F)c(N3CCNCC3)nc21	-0.616% [at 18.6 µM] (inactive)
CCCCC1C(=O)N(c2ccccc2)N(c2ccc(O)cc2)C1=O (stereo not given)	-0.0017% [at 18.6 µM] (inactive)
CCOC(=O)[C@@H](C)Oc1ccc(Oc2nc3ccc(Cl)cc3o2)cc1	inactive
O=C(C(=O)c1ccccc1)c1ccccc1	inactive

[Q] What value of measured fluorescence, % of fluorescent control is listed for `C=CC(C)=CCC=C(C)C` ?
[A] inactive

[Q] What value of measured fluorescence, % of fluorescent control is listed for `c1ccc(COCc2ccccc2)cc1` ?
[A] inactive

----------
assay: qHTS assay to identify small molecule antagonists of the estrogen related receptor (ERR) signaling pathway from Tox21 library - cell viability counter screen (AID 1224834); conditions: ERR reporter cells viability, CellTiter-Fluor, 17.5 h; series mostly up to 92.4 µM; note: nearly all actives have a fitted effect of over 30% in size
Records with an inconclusive call do not appear. The source made the active and inactive calls. The call rests on the fitted dose curve; in most records, active means well fitted cell-killing curve with a large enough effect in the repeat runs; inconclusive means weak or mixed curves; inactive means flat fitted curve, though single readings scatter.
In this exercise, the only acceptable responses are active, inactive

[Q] Please indicate how the test categorized `Cc1ccc(Nc2nccc(N(C)c3ccc4c(C)n(C)nc4c3)n2)cc1S(N)(=O)=O` .
[A] active

[Q] Please indicate how the test categorized `Cc1nc2ccccc2s1` .
[A] inactive

[Q] Please indicate how the test categorized CO/N=C1\CN(c2nc3c(cc2F)c(=O)c(C(=O)O)cn3C2CC2)CC1CN (configuration not stated) .
[A] inactive

[Q] Please indicate how the test categorized `Cc1cc(C(=C2C=CC(=Nc3ccc(S(=O)(=O)O)cc3S(=O)(=O)O)C=C2)c2ccc(Nc3ccc(S(=O)(=O)O)cc3)cc2)ccc1N` .
[A] inactive

[Q] Please indicate how the test categorized `C[Si]1(C)O[Si](C)(C)O[Si](C)(C)O1` .
[A] inactive

[Q] Please indicate how the test categorized CCCCC(CC)COC(=O)COc1ccc(Cl)cc1C (configuration not stated) .
[A] inactive

[Q] Please indicate how the test categorized `CC(C)CCCCCCOC(=O)CCCCC(=O)OCCCCCCC(C)C` .
[A] inactive

[Q] Please indicate how the test categorized `CO[C@H]1C=CO[C@@]2(C)Oc3c(C)c(O)c4c(O)c(c5c(c4c3C2=O)=NC2(CCN(CC(C)C)CC2)N=5)NC(=O)/C(C)=C\C=C/[C@H](C)[C@H](O)[C@@H](C)[C@@H](O)[C@@H](C)[C@H](OC(C)=O)[C@@H]1C` .
[A] active

[Q] Please indicate how the test categorized NCC1CCCC(CN)C1 (configuration not stated) .
[A] inactive

[Q] Please indicate how the test categorized `NC(=O)Cn1c(=O)cc(CCN2CCN(c3nccc4sccc34)CC2)c2ccc(F)cc21` .
[A] active

[Q] Please indicate how the test categorized `Brc1cc(-c2ccc(Br)c(Br)c2Br)cc(Br)c1Br` .
[A] inactive

[Q] Please indicate how the test categorized `CC(=O)OCC(=O)[C@@]12OC(C)(C)O[C@@H]1C[C@H]1[C@@H]3C[C@H](F)C4=CC(=O)C=C[C@]4(C)[C@@]3(F)[C@@H](O)C[C@@]12C` .
[A] inactive

[Q] Please indicate how the test categorized C/C=C(\C)C(=O)OCCC(C)CCC=C(C)C (configuration not stated) .
[A] inactive

[Q] Please indicate how the test categorized `CC(=N\O)/C(C)=N/O` .
[A] inactive

[Q] Please indicate how the test categorized `Nc1nc(Cl)nc2c1ncn2[C@@H]1O[C@H](CO)[C@@H](O)[C@@H]1F` .
[A] inactive

[Q] Please indicate how the test categorized `CC(C)(O)c1ccccc1CC[C@@H](SCC1(CC(=O)O)CC1)c1cccc(/C=C/c2ccc3ccc(Cl)cc3n2)c1` .
[A] inactive

[Q] Please indicate how the test categorized `CCOC(=O)/C=C/C(=O)O` .
[A] inactive

[Q] Please indicate how the test categorized `CC(=O)Nc1ccc(N)cc1` .
[A] inactive

[Q] Please indicate how the test categorized `N#C[C@@H]1C[C@@H]2C[C@@H]2N1C(=O)[C@@H](N)C12CC3CC(CC(O)(C3)C1)C2` .
[A] inactive

----------
Assay: qHTS assay for small molecule agonists of the p53 signaling pathway - cell viability (AID 651633);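 note: p53RE-bla HCT reporter cells with a stable beta-lactamase p53 reporter; % is set by controls: 0 for no effect and ±100 for the full control effect; nearly all actives have a fitted effect of over 30% in size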
Conditions: p53RE-bla HCT-116 viability, ATP luminescence, 16 h; series mostly up to 83.3 µM
Excerpt: National Center for Advancing Translational Sciences [NCATS] NIH Chemical Genomics Center [NCGC] U.S. Environmental Protection Agency [EPA] National Institutes of Environmental Health Sciences [NIEHS] National Toxicology Program [NTP] U.S. Food and Drug Administration [FDA] p53, a tumor suppressor protein, is activated following cellular insult, including DNA damage and other cellular stresses. […] The activation of the reporter gene under culture conditions can be detected by fluorescence intensity. […]
Records with an inconclusive call do not appear. Active and inactive are the calls of the source. Calls follow the shape of the full dose curve.
measure: outcome

CCCCCCCCCCCC(=O)[O][Sn]([CH2]CCC)([CH2]CCC)[O]C(=O)CCCCCCCCCCC	inactive
O=C(CCC1CCN(Cc2ccccc2)CC1)c1ccc2c(c1)NCCCC2	inactive
CO[C@H]1O[C@H](CO)[C@@H](O)[C@H](O)[C@H]1O	inactive

----------
molecular target: Cytochrome P450 2C9 (Homo sapiens) (UniProt P11712); experiment: Cytochrome P450 Family 2 Subfamily C Member 9 (CYP2C9) small molecule antagonists: luciferase reporter qHTS assay (AID 1671198); settings: P450-Glo CYP2C9 enzyme assay, luciferin luminescence; series mostly up to 115 µM; note: nearly all actives have a fitted effect of over 50% in size
Sequence (P11712 whole entry, looked up): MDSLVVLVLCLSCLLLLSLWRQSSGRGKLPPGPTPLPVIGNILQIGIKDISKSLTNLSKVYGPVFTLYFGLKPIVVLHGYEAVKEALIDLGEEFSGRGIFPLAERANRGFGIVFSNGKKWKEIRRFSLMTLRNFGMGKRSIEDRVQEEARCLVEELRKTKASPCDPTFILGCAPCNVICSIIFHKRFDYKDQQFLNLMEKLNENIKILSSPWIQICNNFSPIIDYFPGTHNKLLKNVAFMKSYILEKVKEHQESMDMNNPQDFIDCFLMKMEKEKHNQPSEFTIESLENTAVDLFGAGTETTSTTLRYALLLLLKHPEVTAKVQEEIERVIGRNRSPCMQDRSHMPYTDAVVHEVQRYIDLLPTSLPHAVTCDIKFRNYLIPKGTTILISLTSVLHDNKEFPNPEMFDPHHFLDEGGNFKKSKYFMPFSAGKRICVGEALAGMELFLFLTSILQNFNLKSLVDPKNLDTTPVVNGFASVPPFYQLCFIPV
Results filed as inconclusive are left out. Calls of active or inactive are those of the source. Calls follow the shape of the dose curve; as a rule, active = well fitted inhibition curve with a large enough effect in the repeat runs; inconclusive = weak or mixed curves; inactive = no such curve, though single readings can be large or run the other way.
In this exercise, the only acceptable responses are true for active, false for inactive

O=C(O)c1ccc(CO)o1	false
COCC(O)CO (centres undefined)	false
CCC(C(=O)OCCN(CC)CC)c1ccccc1 (centres undefined)	false
CCn1cc(C(=O)O)c(=O)c2cc(F)c(N3CCNCC3)nc21	false
OC/C(Br)=C(\Br)CO	false
CCOCCn1c(C2CCN(CCc3ccc(C(C)(C)C(=O)O)cc3)CC2)nc2ccccc21	false

[Q] Please indicate how the test categorized `Cc1cnc(C)c(C)n1` .
[A] false

[Q] Please indicate how the test categorized CCC(C(=O)OCCOCCN(CC)CC)c1ccccc1 (centres undefined) .
[A] false

[Q] Please indicate how the test categorized `COc1ccccc1N=Nc1c(S(=O)(=O)O)cc2cc(S(=O)(=O)O)cc(NC(C)=O)c2c1O` .
[A] true

----------
experiment: qHTS assay to identify small molecule agonists of the hypoxia (HIF-1) signaling pathway - cell viability counter screen (AID 1224844); details: HRE-bla ME-180 viability, CellTiter-Glo luminescence, 17 h; series mostly up to 76.8 µM; note: % is set by controls: 0 for no effect and ±100 for the full control effect; nearly all actives have a fitted effect of over 50% in size
Inconclusive results are not listed. Calls of active or inactive are those of the source. Calls follow the shape of the full dose curve.
In this exercise, the only acceptable responses are active, inactive

Examples from the recorded data:
CC(=N\O)/C(C)=N/O	inactive
Cc1nc2ccccn2c(=O)c1CCN1CCC(C(=O)c2ccc(F)cc2)CC1	inactive

[Q] Please indicate how the test categorized `Nc1nccs1` .
[A] inactive

[Q] Please indicate how the test categorized `CC(C)C(=O)O` .
[A] inactive

[Q] Please indicate how the test categorized `c1cc[c]([Bi]([c]2ccccc2)[c]2ccccc2)cc1` .
[A] inactive

----------
target: Androgen receptor (Homo sapiens); experiment: qHTS assay to identify small molecule agonists of the androgen receptor (AR) signaling pathway using the MDA cell line (AID 743040; note: nearly all actives have a fitted effect of over 20% in size); details: MDA-kb2 AR-luc cells, MMTV luciferase, 16 h; series mostly up to 70.3 µM
The source made the active and inactive calls. The call rests on the fitted dose curve; in most records, active means well fitted activation curve with a large enough effect in the repeat runs; inconclusive means weak or mixed curves; inactive means flat fitted curve, though single readings scatter.
In this exercise, the only acceptable responses are active, inactive

Cc1cc2nc3ccc(=[N+](C)C)cc-3sc2cc1N	inactive

[Q] Please indicate how the test categorized `CC(=O)[C@H]1CC[C@H]2[C@@H]3C[C@H](C)C4=CC(=O)CC[C@]4(C)[C@H]3[C@@H](O)C[C@]12C` .
[A] active

[Q] Please indicate how the test categorized `CCOC(=O)CC(=O)C(=O)OCC` .
[A] inactive

[Q] Please indicate how the test categorized `Nc1ccc(Cl)cc1[N+](=O)[O-]` .
[A] inactive

[Q] Please indicate how the test categorized `O=C(N/N=C/c1ccc([N+](=O)[O-])o1)c1ccc(O)cc1` .
[A] inactive

[Q] Please indicate how the test categorized `CC(C)(O)c1ccccc1CC[C@@H](SCC1(CC(=O)O)CC1)c1cccc(/C=C/c2ccc3ccc(Cl)cc3n2)c1` .
[A] inactive
